The entries below come with measured inhibition values attached.
Tested on: MgrA (MarR family transcriptional regulator), Staphylococcus aureus Newman
Test summary: S. aureus MgrA activity modulators, primary screen, biochemical, S. aureus Newman, fluorescence polarization (AID 602314);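 also: 0% = protein plus DNA without compound and 100% = DNA alone without protein; higher means less MgrA bound to DNA so lower polarization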
Measurement context: MgrA-DNA binding, stronger effect = higher value, concentration not given here
Screen size: about 84,000 compounds; about 110 (0.13%) were called active. The full list was thinned out, with actives kept by preference.
Measure name: inhibition (%)

{"Compound": "CCN(CC)P1(=S)OC(C)(C)CC1(C)O (stereo unspecified)", "Measure name": "inhibition", "Numeric value": 0.3}
{"Compound": "CCN1C(=O)/C(=C/C=C/c2ccco2)C(=O)NC1=S", "Measure name": "inhibition", "Numeric value": 66.7}
{"Compound": "CCn1cc(C=C(C#N)C#N)c2ccccc21", "Measure name": "inhibition", "Numeric value": -2.65}
{"Compound": "NC1=C(C(=O)OCc2ccccc2)C2(C(=O)Nc3ccc(Br)cc32)c2c(c3ccccc3oc2=O)O1 (stereo unspecified)", "Measure name": "inhibition", "Numeric value": -0.3}
{"Compound": "O=C1CSC(c2ccccc2)c2c(-c3ccccc3)nn(-c3ccccc3)c2N1 (stereo unspecified)", "Measure name": "inhibition", "Numeric value": -0.55}
{"Compound": "O=C1NC(=O)C(C2(C3C(=O)NC(=O)NC3=O)C(=O)Nc3ccccc32)C(=O)N1", "Measure name": "inhibition", "Numeric value": 1.5}
